- procedure_summary: Unit input response, intravenous bolus plasma concentration
- Assay type: in vivo
- condition_parameters: human, 14.00 days, read-out: Plasma Concentration of API A
measurement_type: concentration at 14 days (ng/mL)
Your answer should be a plain number; it is taken to be in ng/mL.

Problem: What does the record list as concentration at 14 days for CC(C)(C#Cc1ccc(-c2ccc(Cl)c3c(NS(C)(=O)=O)nn(CC(F)(F)F)c23)c([C@H](Cc2cc(F)cc(F)c2)NC(=O)Cn2nc(C(F)(F)F)c3c2C(F)(F)[C@@H]2C[C@H]32)n1)S(C)(=O)=O [API A, Lenacapavir] ?
Solution: 2.33

====

- procedure_summary: Unit input response, intravenous bolus plasma concentration
- Assay type: in vivo
- condition_parameters: human, 0.17 days, read-out: Plasma Concentration of API A
measurement_type: concentration at 0.17 days (ng/mL)
# number only, unit ng/mL dropped from output

Problem: Which concentration at 0.17 days is reported for this compound? CC(C)(C#Cc1ccc(-c2ccc(Cl)c3c(NS(C)(=O)=O)nn(CC(F)(F)F)c23)c([C@H](Cc2cc(F)cc(F)c2)NC(=O)Cn2nc(C(F)(F)F)c3c2C(F)(F)[C@@H]2C[C@H]32)n1)S(C)(=O)=O
Solution: 14

====

- procedure_summary: Unit input response, intravenous bolus plasma concentration
- Format: in vivo
- condition_parameters: human, 0.25 days, read-out: Plasma Concentration of API A
measurement_type: concentration at 0.25 days (ng/mL)
State the answer as a number, implicitly in ng/mL.

Problem: For CC(C)(C#Cc1ccc(-c2ccc(Cl)c3c(NS(C)(=O)=O)nn(CC(F)(F)F)c23)c([C@H](Cc2cc(F)cc(F)c2)NC(=O)Cn2nc(C(F)(F)F)c3c2C(F)(F)[C@@H]2C[C@H]32)n1)S(C)(=O)=O , what is its reported concentration at 0.25 days?
Solution: 7.73

====

- procedure_summary: Unit input response, intravenous bolus plasma concentration
- Assay type: in vivo
- condition_parameters: human, 0.04 days, read-out: Plasma Concentration of API A
- Text: In predicting plasma concentration time profiles, we used two steps. First, we time scaled in vitro release profiles to use as our reference. Second, we obtained convolution of time-scaled in vitro release profile with unit input response (UIR) we obtained using intravenous bolus dose profile in a physiologically based pharmacokinetic model (PBPK). […]
measurement_type: concentration at 0.04 days (ng/mL)
Answer in ng/mL, number only, no unit symbol.

Problem: Given the entry CC(C)(C#Cc1ccc(-c2ccc(Cl)c3c(NS(C)(=O)=O)nn(CC(F)(F)F)c23)c([C@H](Cc2cc(F)cc(F)c2)NC(=O)Cn2nc(C(F)(F)F)c3c2C(F)(F)[C@@H]2C[C@H]32)n1)S(C)(=O)=O , report its measured concentration at 0.04 days.
Solution: 162

====

- procedure_summary: Unit input response, intravenous bolus plasma concentration
- Format: in vivo
- condition_parameters: human, 2.00 days, read-out: Plasma Concentration of API A
measurement_type: concentration at 2 days

Problem: Can you share its concentration at 2 days? I mean this molecule: CC(C)(C#Cc1ccc(-c2ccc(Cl)c3c(NS(C)(=O)=O)nn(CC(F)(F)F)c23)c([C@H](Cc2cc(F)cc(F)c2)NC(=O)Cn2nc(C(F)(F)F)c3c2C(F)(F)[C@@H]2C[C@H]32)n1)S(C)(=O)=O
Solution: 4.37 ng/mL

====

- procedure_summary: Unit input response, intravenous bolus plasma concentration
- Format: in vivo
- condition_parameters: human, 9.00 days, read-out: Plasma Concentration of API A
- Description: In predicting plasma concentration time profiles, we used two steps. First, we time scaled in vitro release profiles to use as our reference. Second, we obtained convolution of time-scaled in vitro release profile with unit input response (UIR) we obtained using intravenous bolus dose profile in a physiologically based pharmacokinetic model (PBPK). […]
measurement_type: concentration at 9 days (ng/mL)
Form entry: value (ng/mL) — number only.

Problem: Please look up its concentration at 9 days: CC(C)(C#Cc1ccc(-c2ccc(Cl)c3c(NS(C)(=O)=O)nn(CC(F)(F)F)c23)c([C@H](Cc2cc(F)cc(F)c2)NC(=O)Cn2nc(C(F)(F)F)c3c2C(F)(F)[C@@H]2C[C@H]32)n1)S(C)(=O)=O [API A, Lenacapavir]
Solution: 2.84
